The entries below are paired with their reported Internalization %, MDA-MB-231, 2 µg/ml, 4 h.
target_under_test: T1, human Trop-2 expressed on cell surface (human, UniProt P09758 27-323)
T1 sequence (looked up): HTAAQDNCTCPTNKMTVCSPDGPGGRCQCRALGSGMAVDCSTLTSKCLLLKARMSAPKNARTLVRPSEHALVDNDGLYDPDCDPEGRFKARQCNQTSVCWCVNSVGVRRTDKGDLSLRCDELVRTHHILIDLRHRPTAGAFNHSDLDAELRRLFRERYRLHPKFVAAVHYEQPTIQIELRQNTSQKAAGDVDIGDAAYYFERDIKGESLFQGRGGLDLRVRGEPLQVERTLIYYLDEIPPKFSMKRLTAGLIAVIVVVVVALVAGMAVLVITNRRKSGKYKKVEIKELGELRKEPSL
protocol_text: cell-based or functional assay
# output: bare number, implied unit %

Sure, the documented Internalization %, MDA-MB-231, 2 µg/ml, 4 h for 62E3 (antibody, V domains shown, Rabbit-derived clone; LEM construct: VH + rabbit IgG CH1 + human IgG1 CH2-CH3) VH: QEQLKESGGGLVQPGGSLKLSCKASGFDFNEYGVSWVRQAPGKGLEWIAYIYPAFHNTYYATWVNGRFTISSHNAQNTLYLQLNTLTAADTATYFCARDAGTTDYNFNLWGPGTLVTVSS VL: DVVMTQTASPVSAAVGGTVTIKCQASEDIESYLAWYQQKPGQPPKLLIYEASKLASGVSSRFSGSGYGTEFTLTISGVECADAATYYCQQALTIGNVDNPFGGGSEVVVK is 48

Sure, the documented Internalization %, MDA-MB-231, 2 µg/ml, 4 h for 9D7 (antibody, V domains shown, Rabbit-derived clone; LEM construct: VH + rabbit IgG CH1 + human IgG1 CH2-CH3) VH: QSLEESGGDLVQPGASLTLTCKASGFDLNNYSILWVRQAPGKGLEWIGCIYISGGSTYYANWAKGRFAISKTSSTTVTLQMTSLTAADTATYFCARDDGTASYYLNLWGPGTLVTVSS VL: YDMTQTPASVSEPVGGTVTIKCQASEDIYKLLAWYQQKPGQPPKLLIYAASDLESGVPSRFKGRGSGTDYTLTISDLECADAATYYCQQAYTIGNIDNSFGGGTEVVVK is 49

Sure, the documented Internalization %, MDA-MB-231, 2 µg/ml, 4 h for 65D5 (antibody, V domains shown, Rabbit-derived clone; LEM construct: VH + rabbit IgG CH1 + human IgG1 CH2-CH3) VH: QEQLKESGGGLVQPGGSLKLSCKASGFDFNAYGVSWVRQAPGKGLEWIAYIYPAFHNTYYATWVNGRFTISSHNAQNTLYLQLNTLTAADTATYFCARDAGTTDYNFNLWGPGTLVTVSS VL: DIVMTQTPASVSEPVGGTVTIKCQASQSISSYLAWYQQKPGQPPKLLIYEATKLTSGVSSRFSGSGYGTEFTLTISGVECADAATYYCQQALTVGDVDNPFGGGSEVVVK is 41
